Molecular target: T1, 125I-α-bungarotoxin, P60615
T1 chain: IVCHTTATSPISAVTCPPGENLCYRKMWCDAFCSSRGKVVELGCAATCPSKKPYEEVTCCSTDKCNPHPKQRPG
Below, each of the binders is paired with its reported pIC50 value.
Units for pIC50: none; it is -log10 of a concentration expressed in mol/L.

Guide cases for pIC50, answers given:
Ac-IPGKRSERFYECCKEPYPDV-NH2 (cysteine pairing not given here)
6.70
Ac-SEAFYECCKEP-NH2 (cysteine pairing not given here)
5.02
Ac-SERFYECCAEP-NH2 (cysteine pairing not given here)
5.89
Ac-SERFYACCKEP-NH2 (cysteine pairing not given here)
5.02
Ac-AERFYECCKEP-NH2 (cysteine pairing not given here)
4.82
Ac-SARFYECCKEP-NH2 (cysteine pairing not given here)
5.08

Record request: pIC50 value, item Ac-SERFYECCKEP-NH2 (cysteine pairing not given here) 4.72
